Measured values drawn from ChEMBL document CHEMBL1201862 for this set.

Test system: UACC-257
protocol_description: NCI tumour cell line growth inhibition, 48 h
Active and inactive are the calls of the source. Cut-off read from the data, not from the text of the source: active = GI50 up to about 1.1 µM and inactive = higher.
Output constraint: value belongs to true (1) for active, false (0) for inactive

Some solved cases for reference:
>>> cat("COc1cc(CNC(=S)CCCCCCCCCCC(C)C)ccc1O")
"false (0)"
>>> cat("COc1cccc2c1C(=O)c1c(O)c3c(c(O)c1C2=O)CC(O)(C(O)CO)CC3OC1CC2C(OC3COCC(C#N)N32)C(C)O1 (stereo not given)")
"true (1)"

## Task Which outcome was assigned to COC1/C=C\OC2(C)Oc3c(C)c(O)c4c(O)c(c(CN(C)C)c(O)c4c3C2=O)NC(=O)/C(C)=C\C=C/C(C)C(O)C(C)C(O)C(C)C(OC(C)=O)C1C (stereo not given) in this test?
## Result false (0)

## Task Record lookup: outcome of this test for CCCCCCCCCCCC(=O)c1c(O)cccc1O ?
## Result false (0)

## Task Call for entry O=[N+]([O-])c1ccc2c(c1)S(=O)(=O)N1Cc3ccccc3CCN21 :
## Result false (0)
